Measured Kd by item
molecular target: JAK2 JH1 WT (T842-G1132) (Homo sapiens, UniProt O60674); construct: *JAK2 JH1 WT (T842-G1132) N-His60-avi-TEV; His6 (N); TEV cleavage site (N); purchased Biortus; test: Surface Plasmon Resonance (SPR) binding assay, JAK2 JH1 domain; settings: SPR, JAK2 JH1 domain
Sequence (O60674 842-1132): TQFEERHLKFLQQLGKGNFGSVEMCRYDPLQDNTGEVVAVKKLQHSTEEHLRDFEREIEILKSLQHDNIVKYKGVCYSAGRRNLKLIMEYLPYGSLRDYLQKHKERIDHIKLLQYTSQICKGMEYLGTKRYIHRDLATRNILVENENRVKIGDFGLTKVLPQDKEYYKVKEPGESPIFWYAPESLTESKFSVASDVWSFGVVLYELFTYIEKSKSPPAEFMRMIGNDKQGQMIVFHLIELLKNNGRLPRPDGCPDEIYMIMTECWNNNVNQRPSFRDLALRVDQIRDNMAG

compound: CNC(=O)c1nnc(NC(=O)C2CC2)cc1Nc1cccc(-c2cnn(C3CN(Cc4cnn(C)c4)C3)c2)c1OC [Compound 44]
Kd: 0.5 to 5 µM
--
compound: CNC(=O)c1nnc(NC(=O)C2CC2)cc1Nc1cccc(-c2ccc(C(=O)N(C)Cc3cnn(C)c3)nc2)c1OC [Compound 17]
Kd: 5 to 100 µM

Param item = CNC(=O)c1nnc(NC(=O)C2CC2)cc1Nc1cccc(-c2ccc(C(=O)N(C)Cc3cc(C(F)F)ccn3)nc2)c1OC [Compound 158] ; retrieve measured Kd.
5 to 100 µM

// next record CNC(=O)c1nnc(NC(=O)C2CC2)cc1Nc1cccc(-c2ccc(C(=O)N(C)Cc3cccnc3C#N)nc2)c1OC [Compound 136]
5 to 100 µM

// next record CNC(=O)c1nnc(NC(=O)C2CC2)cc1Nc1cccc(-c2ccc(C(=O)NCc3cccn(C)c3=O)nn2)c1OC [Compound 8]
5 to 100 µM

---

biological target: JAK2 JH1 WT (T842-G1132) (Homo sapiens); construct: *JAK2 JH1 WT (T842-G1132) N-His60-avi-TEV; His6 (N); TEV cleavage site (N); purchased Biortus; assay: Surface Plasmon Resonance (SPR) binding assay, JAK2 JH1 domain
measure: Kd

Param item = CNC(=O)c1nnc(NC(=O)C2CC2)cc1Nc1cccc(-c2cn(C3CN(Cc4cccc(C#N)n4)C3)nc2CO)c1OC ; retrieve measured Kd.
0.5 to 5 µM

// next record CNC(=O)c1nnc(NC(=O)C2CC2)cc1Nc1cccc(-c2cn(C3CN(Cc4cccc(C#N)n4)C3)nc2COC)c1OC
0.5 to 5 µM

// next record COc1c(Nc2cc(NC(=O)C3CC3)nnc2C(N)=O)cccc1-c1ccc(C(=O)N(C)Cc2cc(C#N)ccn2)nc1
0.05 to 0.5 µM

// next record CNC(=O)c1nnc(NC(=O)C2CC2)cc1Nc1cccc(-c2cnn(C3CN(C(C)=O)C3)c2)c1OC
5 to 100 µM

---

tested on: TF1 JAK2 V617F STAT5 reporter; experiment: Cellular TF1 STAT5 assay (luciferase reporter), JAK2 V617F; assay type: cell-based; details: TF1 JAK2 V617F, read-out: Cell PD TF1 V617F STAT5 (IC50)
Measured IC50 by item

Some compounds with known IC50 results, for comparison:
smiles.structure: CNC(=O)c1nnc(NC(=O)C2CC2)cc1Nc1cccc(-c2cnn(C3CN(Cc4cnn(C)c4)C3)c2)c1OC
IC50: 0.5 to 5 µM
//
smiles.structure: CNC(=O)c1nnc(NC(=O)C2CC2)cc1Nc1cccc(-c2ccc(C(=O)N(C)Cc3cc(Cl)ccc3OC)nc2)c1OC
IC50: 0.5 to 5 µM
//
smiles.structure: CNC(=O)c1nnc(NC(=O)C2CC2)cc1Nc1cccc(-c2ccc(C(=O)NCc3cccn(C)c3=O)c(C)c2)c1OC
IC50: 0.5 to 5 µM
//
smiles.structure: CNC(=O)c1nnc(NC(=O)C2CC2)cc1Nc1cccc(-c2ccc(C(=O)NCc3cccn(C)c3=O)nn2)c1OC
IC50: 5 to 100 µM

Query IC50 on TF1 JAK2 V617F STAT5 reporter for CNC(=O)c1nnc(NC(=O)C2CC2)cc1Nc1cccc(-c2cnc(C(=O)N(C)Cc3ccn(C)n3)c(F)c2)c1OC
0.5 to 5 µM

// next record CNC(=O)c1nnc(NC(=O)C2CC2)cc1Nc1cccc(-c2cnn(C3CN(Cc4ncn(C)n4)C3)c2)c1OC
0.5 to 5 µM

// next record CNC(=O)c1nnc(NC(=O)C2CC2)cc1Nc1cccc(-c2ccc(C(=O)N(C)Cc3ccon3)nc2)c1OC
5 to 100 µM

---

test system: TF1 JAK2 V617F STAT5 reporter; assay: Cellular TF1 STAT5 assay (luciferase reporter), JAK2 V617F; type: cell-based; details: TF1 JAK2 V617F, read-out: Cell PD TF1 V617F STAT5 (IC50)
measure: IC50

smiles.structure: CNC(=O)c1nnc(NC(=O)C2CC2)cc1Nc1cccc(-c2cnc(C(=O)N(C)Cc3ccccn3)nc2)c1OC
reported.value: 500 to 5000 nM

Param item = CNC(=O)c1nnc(NC(=O)C2CC2)cc1Nc1cccc(-c2nnc(C3CN(Cc4ccccn4)C3)o2)c1OC ; retrieve measured IC50.
5000 to 100000 nM

// next record CNC(=O)c1nnc(NC(=O)C2CC2)cc1Nc1cccc(-c2ccc(C(=O)N(C)Cc3nc(C)no3)nc2)c1OC
500 to 5000 nM

// next record CNC(=O)c1nnc(NC(=O)C2CC2)cc1Nc1cccc(-c2cnn(C3CN(Cc4nccs4)C3)c2)c1OC
50 to 500 nM

---

test system: TF1 JAK2 V617F STAT5 reporter; assay: Cellular TF1 STAT5 assay (luciferase reporter), JAK2 V617F; type: cell-based; conditions: TF1 JAK2 V617F, read-out: Cell PD TF1 V617F STAT5 (IC50)
Measured IC50 by item

molecule: CNC(=O)c1nnc(NC(=O)C2CC2)cc1Nc1cccc(-c2cnn(C3CN(Cc4ccn(C)n4)C3)c2)c1OC
IC50: 0.05 to 0.5 µM

molecule: CNC(=O)c1nnc(NC(=O)C2CC2)cc1Nc1cccc(-c2cnn(C3CN(Cc4nccc(C)n4)C3)c2)c1OC
IC50: 0.5 to 5 µM

molecule: CNC(=O)c1nnc(NC(=O)C2CC2)cc1Nc1cccc(-c2ccc(C(=O)N(C)C[C@@H]3CCCO3)nc2)c1OC (single isomer, unassigned)
IC50: 5 to 100 µM

molecule: CNC(=O)c1nnc(NC(=O)C2CC2)cc1Nc1cccc(-c2ccc(C(=O)N(C)Cc3cscn3)nc2)c1OC
IC50: 0.05 to 0.5 µM

molecule: CNC(=O)c1nnc(NC(=O)C2CC2)cc1Nc1cccc(-c2ccc(C(=O)N(C)Cc3nnc(C)s3)nc2)c1OC
IC50: 0.5 to 5 µM

molecule: CNC(=O)c1nnc(NC(=O)C2CC2)cc1Nc1cccc(-c2ccc(C(=O)N(C)Cc3cccn(C)c3=O)nc2)c1OC
IC50: 0.05 to 0.5 µM

# next molecule below
Param item = CNC(=O)c1nnc(NC(=O)C2CC2)cc1Nc1cccc(-c2cn(C3CN(Cc4cccc(C)n4)C3)nn2)c1OC ; retrieve measured IC50.
0.05 to 0.5 µM

---

system: TF1 JAK2 V617F STAT5 reporter; experiment: Cellular TF1 STAT5 assay (luciferase reporter), JAK2 V617F; type: cell-based; settings: TF1 JAK2 V617F, read-out: Cell PD TF1 V617F STAT5 (IC50)
pIC50: −log10 of the molar value.
Measured pIC50 by item

compound: CCn1cncc1CN(C)C(=O)c1ccc(-c2cccc(Nc3cc(NC(=O)C4CC4)nnc3C(=O)NC)c2OC)cn1
tgt: TF1 JAK2 V617F STAT5 reporter
pIC50: 5.30 to 6.30

compound: CNC(=O)c1nnc(NC(=O)C2CC2)cc1Nc1cccc(-c2ccc(C(=O)N(C)Cc3ccn(C)n3)c(F)c2)c1OC
tgt: TF1 JAK2 V617F STAT5 reporter
pIC50: 5.30 to 6.30

Param item = CNC(=O)c1nnc(NC(=O)C2CC2)cc1Nc1cccc(-c2ccc(C(=O)N(C)[C@@H](C)c3ccn(C)n3)nc2)c1OC (single isomer, unassigned) ; retrieve measured pIC50.
5.30 to 6.30

// next record CNC(=O)c1nnc(NC(=O)C2CC2)cc1Nc1cccc(-c2cnc(C(=O)N(C)Cc3cc(C#N)ccn3)cc2C2CC2)c1OC
6.30 to 7.30

// next record CNC(=O)c1nnc(NC(=O)C2CC2)cc1Nc1cccc(-c2ccc(C(=O)N(C)Cc3ccc(OC)cc3)nc2)c1OC
5.30 to 6.30

// next record CNC(=O)c1nnc(NC(=O)C2CC2)cc1Nc1cccc(-c2cnc(C(=O)N(C)Cc3cn(C)nc3C)c(F)c2)c1OC
6.30 to 7.30

// next record CNC(=O)c1nnc(NC(=O)C2CC2)cc1Nc1cccc(-c2ccc(C(=O)N(C)[C@H](C)c3cc(C#N)ccn3)nc2)c1OC (single isomer, unassigned)
5.30 to 6.30

---

target: JAK2 JH2 WT (V536-D812) [W659A, W777A, F794H solubilizing mutations] (Homo sapiens, UniProt O60674, F794H/W659A/W777A); construct: **JAK2 JH2 WT (V536-D812) [W659A, W777A, F794H solubilizing mutations]; C-thrombin-avi-His6; thrombin cleavage site (C); His6 (C); purchased Biortus; test: Surface Plasmon Resonance (SPR) binding assay, JAK2 JH2 domain
Sequence (O60674 536-812 W659A/W777A/F794H): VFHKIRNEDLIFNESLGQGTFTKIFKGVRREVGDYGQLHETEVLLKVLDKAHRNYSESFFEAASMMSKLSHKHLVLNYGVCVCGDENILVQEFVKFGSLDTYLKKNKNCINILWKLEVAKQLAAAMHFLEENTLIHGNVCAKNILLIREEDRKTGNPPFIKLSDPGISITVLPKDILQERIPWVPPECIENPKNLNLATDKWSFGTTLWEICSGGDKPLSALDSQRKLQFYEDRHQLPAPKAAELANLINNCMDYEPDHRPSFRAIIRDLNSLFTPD
measure: Kd

molecule: CNC(=O)c1nnc(NC(=O)C2CC2)cc1Nc1cccc(-c2cnn(C3CN(Cc4cccc([N+](=O)[O-])n4)C3)c2)c1OC [Compound 294]
Kd: 0.01 to 10 nM
--
molecule: CNC(=O)c1nnc(NC(=O)C2CC2)cc1Nc1cccc(-c2cnn(C3CN(Cc4cccc(C(=O)C(C)C)n4)C3)c2)c1OC [Compound 309]
Kd: 0.01 to 10 nM

# next molecule below
Param item = CNC(=O)c1nnc(NC(=O)C2CC2)cc1Nc1cccc(-c2ccc(C3CN(Cc4cc(C#N)ccn4)C3)nc2)c1OC [Compound 279] ; retrieve measured Kd.
10 to 50 nM
